The compounds listed here are annotated with their activity [%] (%-substrate conversion after 20 min incubation).
- studyTarget: WT IDH1 (Homo sapiens)
- Construct: made in house; host or cells: Escherichia coli BL21(DE3) pLyS
- Sequence (O75874 whole entry): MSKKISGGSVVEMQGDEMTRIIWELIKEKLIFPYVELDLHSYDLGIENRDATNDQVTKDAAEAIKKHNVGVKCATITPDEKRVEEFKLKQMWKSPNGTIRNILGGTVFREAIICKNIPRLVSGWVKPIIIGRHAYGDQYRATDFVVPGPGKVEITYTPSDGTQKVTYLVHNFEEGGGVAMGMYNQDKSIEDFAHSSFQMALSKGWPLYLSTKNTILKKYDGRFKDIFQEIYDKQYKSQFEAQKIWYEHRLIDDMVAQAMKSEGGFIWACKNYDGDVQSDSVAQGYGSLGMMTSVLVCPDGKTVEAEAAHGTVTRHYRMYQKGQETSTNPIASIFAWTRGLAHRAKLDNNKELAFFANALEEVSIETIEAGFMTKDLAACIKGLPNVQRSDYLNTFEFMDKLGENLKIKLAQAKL
- measurementProtocol: Absorbance assay, WT activity in the presence of equimolar DL-isocitrate (inhibition)
- Format: biochemical
- appliedConditions: […] isocitrate and […] test compound, 75 μM NADP+, 2.0 nM WT IDH1
Counter-ions that a name gives are not always drawn.
measuredEndpoint: activity [%] (%-substrate conversion after 20 min incubation) (%)

| compound | valueReported |
| --- | --- |
| O=C(O)CNC(=O)C(=O)O [NOG, N-oxalylglycine, reference compound] | 93 |
| O=C(O)C(=O)C1CC=CCC1C(=O)O (mixture of isomers) [compound 27] | 93 |
| COC(=O)/C=C/C(=O)O [mono-methyl fumarate] | 102 |
| O=C(O)C(=O)CC(Cc1ccc2ccccc2c1)C(=O)O (racemic) [compound 20] | 97 |
| CC[C@H](C)C(=O)C(=O)O [α-ketoisoleucine] | 105 |
| COc1ccc(CC(CC(=O)O)C(=O)C(=O)O)cc1 (racemic) [compound 9] | 93 |
| O=C(O)C(=O)CCc1ccccc1 [2-oxo-4-phenylbutanoic acid] | 94 |
| CSCCC(=O)C(=O)O [4-methylthio-2-oxobutyric acid] | 102 |
| CCC(CC(=O)O)C(=O)C(=O)O (racemic) [compound 2] | 98 |
| CCCC(CC(=O)C(=O)O)C(=O)O (racemic) [compound 15] | 95 |

Values were extracted from paper PMC9939733.
